Reported pest or weed control at 25 ppm values for the following molecules.
System: Phakopsora pachyrhizi
experimental protocol: Asian soybean rust (PHAKPA) disease control on soybean seedlings
Format: in vivo
measurement parameters: Phakopsora pachyrhizi, 72 h, High volume application at 25 ppm, 3 day curative, read-out: PHAKPA 3DC (3 Day Curative) disease control
measurement name: pest or weed control at 25 ppm

COc1ccnc(C(=O)N[C@H](C)C(=O)O[C@H](C)[C@H](C)c2ccc(F)cc2C)c1OC(C)=O : < 0%
COc1ccnc(C(=O)N[C@H](C(=O)O[C@H](C)[C@H](C)c2ccc(F)cc2)C(C)C)c1OC(C)=O : < 0%
COc1ccnc(C(=O)N[C@@H](C)C(=O)O[C@@H](C)[C@@H](C)c2c(C)cc(F)cc2C)c1OC(C)=O : > 80%
COc1ccc([C@H](C)[C@H](C)OC(=O)[C@@H](NC(=O)c2nccc(OC)c2OC(=O)C(C)C)C(C)C)c(C)c1 : < 80%
COc1ccnc(C(=O)N[C@@H](C)C(=O)O[C@@H](C)[C@@H](C)c2ccccc2C(F)(F)F)c1OC(C)=O : > 80%
CCCCC(=O)Oc1c(OC)ccnc1C(=O)N[C@@H](C)C(=O)O[C@@H](C)[C@@H](C)c1ccccc1C : > 80%
COc1ccnc(C(=O)N[C@@H](C)C(=O)O[C@H](C)[C@@H](C)c2ccccc2C)c1OC(=O)C(C)C : < 0%
COc1ccnc(C(=O)N[C@@H](C)C(=O)O[C@@H](C)[C@@H](C)c2ccccc2C)c1OC(=O)C(C)C : > 80%
COc1ccnc(C(=O)N[C@@H](C)C(=O)O[C@H](C)[C@H](C)c2c(C)cc(F)cc2C)c1OC(=O)C(C)C : > 80%
COc1ccnc(C(=O)N[C@@H](C)C(=O)O[C@@H](C)[C@@H](C)c2c(C)cccc2C)c1OC(C)=O : > 80%
COc1ccnc(C(=O)N[C@H](C(=O)O[C@H](C)[C@H](C)c2ccc(F)cc2C)C(C)C)c1OC(C)=O : < 80%
COc1ccc([C@@H](C)[C@@H](C)OC(=O)[C@H](C)NC(=O)c2nccc(OC)c2OC(=O)C(C)C)c(C)c1 : < 0%
COc1ccnc(C(=O)N[C@H](C)C(=O)O[C@H](C)[C@H](C)c2ccc(F)cc2C)c1OC(=O)C(C)C : < 0%
COc1ccnc(C(=O)N[C@H](C(=O)O[C@H](C)[C@@H](C)c2ccc(F)cc2C)C(C)C)c1OC(C)=O : < 0%

----------
Reported pest or weed control at 100 ppm values for the following compounds.
System: Zymoseptoria tritici
experimental protocol: Leaf blotch of wheat (SEPTTR) disease control on wheat seedlings
Assay type: in vivo
measurement parameters: 24 h, High volume application, 100 ppm, 1 Day Protectant, read-out: SEPTTR disease control rating, 1DP
Protocol: Example A: Evaluation of Fungicidal Activity: Leaf Blotch of Wheat (Zymoseptoria tritici; Bayer Code […]) Technical grades of materials were dissolved in acetone, which were then mixed with nine volumes of water containing 110 ppm Triton X-100. […] All fungicides were evaluated using the aforementioned method for their activity vs. all target diseases, unless stated otherwise. […] Percent disease control was calculated using the ratio of disease severity on treated plants relative to untreated plants.
measurement name: pest or weed control at 100 ppm

COc1ccnc(C(=O)N[C@@H](C)C(=O)O[C@H](C)[C@@H](C)c2ccccc2C)c1O : < 80%
COc1ccnc(C(=O)N[C@@H](C)C(=O)O[C@H](C)[C@H](C)c2ccc(F)cc2C(F)(F)F)c1O : < 80%
COc1ccnc(C(=O)NCC(=O)O[C@@H](C)[C@H](C)c2ccc(F)cc2C)c1O : < 0%
COc1ccc([C@H](C)[C@H](C)OC(=O)CNC(=O)c2nccc(OC)c2O)c(C)c1 : < 80%
COc1ccnc(C(=O)N[C@H](C(=O)O[C@H](C)[C@@H](C)c2ccccc2C)C(C)C)c1O : < 80%
COc1ccnc(C(=O)N[C@@H](C)C(=O)O[C@H](C)[C@H](C)c2ccc(C)cc2C)c1O : < 80%
COc1ccnc(C(=O)N[C@@H](C)C(=O)O[C@H](C)[C@H](C)c2c(C)cc(F)cc2C)c1O : > 80%
COc1ccccc1[C@H](C)[C@H](C)OC(=O)[C@H](C)NC(=O)c1nccc(OC)c1O : < 80%
COc1ccnc(C(=O)NCC(=O)O[C@H](C)[C@H](C)c2ccc(F)cc2)c1O : < 0%
COc1ccnc(C(=O)NCC(=O)O[C@@H](C)[C@@H](C)c2ccc(F)cc2C)c1O : < 0%
COc1cc(F)ccc1[C@@H](C)[C@@H](C)OC(=O)[C@H](C)NC(=O)c1c(O)c(OC)cc[n+]1[O-] : < 80%
COc1ccnc(C(=O)N[C@@H](C)C(=O)O[C@H](C)[C@H](C)c2ccc(F)cc2)c1O : < 80%
COc1ccnc(C(=O)NCC(=O)O[C@H](C)[C@H](C)c2ccc(F)cc2C)c1O : < 0%
COc1ccnc(C(=O)N[C@H](C(=O)O[C@H](C)[C@H](C)c2ccc(F)cc2)C(C)C)c1O : > 80%
COc1ccc([C@@H](C)[C@@H](C)OC(=O)[C@@H](NC(=O)c2nccc(OC)c2O)C(C)C)c(C)c1 : > 80%
COc1ccnc(C(=O)N[C@@H](C)C(=O)O[C@@H](C)[C@@H](C)c2c(C)cc(F)cc2C)c1O : > 80%
COc1ccnc(C(=O)NCC(=O)O[C@H](C)[C@@H](C)c2ccc(F)cc2C)c1O : < 0%
COc1ccnc(C(=O)N[C@@H](C)C(=O)O[C@@H](C)[C@@H](C)c2ccccc2C(F)(F)F)c1O : > 80%
COc1ccnc(C(=S)N[C@@H](C)C(=O)O[C@@H](C)[C@@H](C)C2CCCC2)c1O : < 80%
COc1ccnc(C(=O)N[C@H](C)C(=O)O[C@H](C)[C@@H](C)c2ccccc2C)c1O : < 80%
COc1ccc([C@@H](C)[C@@H](C)OC(=O)[C@H](C)NC(=O)c2nccc(OC)c2O)c(C)c1 : < 80%
COc1ccnc(C(=O)N[C@@H](C)C(=O)O[C@@H](C)[C@@H](C)c2ccc(N(C)C)cc2)c1O : < 0%
COc1ccnc(C(=O)N[C@H](C(=O)O[C@@H](C)[C@H](C)c2ccc(F)cc2C)C(C)C)c1O : < 80%
COc1ccnc(C(=O)N[C@H](C)C(=O)O[C@H](C)[C@H](C)c2ccc(F)cc2C)c1O : < 80%
COc1cc(F)ccc1[C@@H](C)[C@@H](C)OC(=O)[C@H](C)NC(=O)c1nccc(OC)c1O : < 80%
COc1ccnc(C(=S)N[C@@H](C)C(=O)O[C@@H](C)[C@@H](C)c2ccc(F)cc2C(F)(F)F)c1O : < 80%
COc1ccnc(C(=O)N[C@@H](C)C(=O)O[C@@H](C)[C@@H](C)c2c(C)cccc2C)c1O : > 80%
COc1ccnc(C(=O)N[C@@H](C)C(=O)O[C@H](C)[C@@H](C)c2ccc(F)cc2C)c1O : < 80%
COc1ccnc(C(=O)N[C@@H](C)C(=O)O[C@@H](C)[C@H](C)c2ccccc2C)c1O : < 80%
COc1ccnc(C(=O)N[C@H](C(=O)O[C@@H](C)[C@@H](C)c2ccc(F)cc2C)C(C)C)c1O : > 80%

----------
Reported pest or weed control at 100 ppm values for the following molecules.
Test system: Puccinia triticina
experimental protocol: Wheat brown rust (PUCCRT) disease control on wheat seedlings
Type: in vivo
measurement parameters: 72 h, High volume application, 100 ppm, 3 Day Curative, read-out: PUCCRT disease control rating, 3DC
measurement name: pest or weed control at 100 ppm

COc1ccnc(C(=O)N[C@@H](C)C(=O)O[C@@H](C)[C@@H](C)c2ccc(C)cc2C)c1O : > 80%
COc1ccnc(C(=O)N[C@H](C(=O)O[C@H](C)[C@@H](C)c2ccccc2C)C(C)C)c1O : < 80%
COc1ccnc(C(=O)N[C@@H](C)C(=O)O[C@@H](C)[C@@H](C)C2CCCC2)c1O : > 80%
COc1ccnc(C(=O)N[C@@H](C)C(=O)O[C@@H](C)[C@@H](C)c2c(C)cc(F)cc2C)c1O : > 80%
COc1ccnc(C(=O)NCC(=O)O[C@H](C)[C@@H](C)c2ccc(F)cc2C)c1O : < 0%
COc1ccnc(C(=O)NCC(=O)O[C@@H](C)[C@@H](C)c2ccc(F)cc2C)c1O : > 80%
COc1ccnc(C(=O)N[C@@H](C)C(=O)O[C@@H](C)[C@@H](C)c2ccc(F)cc2C)c1O : > 80%
COc1ccc([C@@H](C)[C@@H](C)OC(=O)[C@@H](C)NC(=O)c2nccc(OC)c2O)c(C)c1 : < 0%
COc1ccnc(C(=O)N[C@H](C)C(=O)O[C@H](C)[C@H](C)c2ccc(F)cc2)c1O : < 80%
COc1ccnc(C(=S)N[C@@H](C)C(=O)O[C@@H](C)[C@@H](C)c2ccc(F)cc2C(F)(F)F)c1O : < 80%
COc1ccnc(C(=O)N[C@@H](C)C(=O)OC(C)C(C)c2c(C)cccc2C)c1O (stereo partly drawn) : > 80%
COc1ccnc(C(=O)N[C@H](C)C(=O)O[C@H](C)[C@H](C)c2ccc(F)cc2C)c1O : < 80%
COc1ccnc(C(=O)N[C@@H](C)C(=O)O[C@@H](C)[C@H](C)c2ccccc2C)c1O : > 80%
COc1ccnc(C(=O)N[C@H](C(=O)O[C@H](C)[C@H](C)c2ccc(F)cc2)C(C)C)c1O : < 80%
COc1ccnc(C(=O)N[C@@H](C)C(=O)O[C@@H](C)[C@@H](C)c2ccccc2)c1O : > 80%
COc1ccnc(C(=O)NCC(=O)O[C@@H](C)[C@@H](C)c2ccc(F)cc2)c1O : > 80%
COc1ccc([C@H](C)[C@H](C)OC(=O)CNC(=O)c2nccc(OC)c2O)c(C)c1 : > 80%
COc1ccnc(C(=O)N[C@@H](C)C(=O)O[C@H](C)[C@H](C)c2c(C)cc(F)cc2C)c1O : > 80%
COc1ccnc(C(=O)NCC(=O)O[C@H](C)[C@@H](C)c2ccccc2C)c1O : < 0%
COc1ccnc(C(=O)N[C@@H](C)C(=O)O[C@@H](C)[C@@H](C)c2ccccc2C)c1O : > 80%
COc1ccnc(C(=O)N[C@H](C(=O)O[C@@H](C)[C@@H](C)c2ccc(F)cc2C)C(C)C)c1O : > 80%
COc1ccnc(C(=O)N[C@@H](C)C(=O)O[C@H](C)[C@H](C)c2ccc(F)cc2)c1O : < 80%
COc1ccnc(C(=O)N[C@H](C)C(=O)O[C@H](C)[C@@H](C)c2ccccc2C)c1O : < 80%
COc1ccnc(C(=O)N[C@@H](C)C(=O)O[C@@H](C)[C@@H](C)c2c(C)cccc2C)c1O : > 80%
COc1ccnc(C(=O)N[C@H](C)C(=O)O[C@H](C)[C@@H](C)c2ccc(F)cc2C)c1O : < 0%
COc1ccnc(C(=O)N[C@@H](C)C(=O)O[C@H](C)[C@H](C)c2ccccc2C(F)(F)F)c1O : < 0%
COc1ccnc(C(=O)N[C@H](C(=O)O[C@H](C)[C@H](C)c2ccc(F)cc2C)C(C)C)c1O : < 0%
COc1cc(F)ccc1[C@@H](C)[C@@H](C)OC(=O)[C@H](C)NC(=O)c1nccc(OC)c1O : < 80%
COc1ccnc(C(=O)N[C@@H](C)C(=O)O[C@@H](C)[C@@H](C)c2ccc(F)cc2C(F)(F)F)c1O : > 80%
COc1ccnc(C(=O)N[C@@H](C)C(=O)O[C@H](C)[C@@H](C)c2ccc(F)cc2C)c1O : < 80%
